tested on: influenza virus A/Puerto Rico/8/34 (H1N1), GS-R virus; experiment: microbe, parasite or virus in culture; format: cell-based; settings: unidentified influenza virus, H1N1, MDCK, read-out: IC50 to GS
assay-endpoint: IC50

Answer with reported IC50 of CC(=O)NC12CC(C)(C)C3CCC1(C)CCCC32C (stereo not shown) 106 µM
